Data origin, for the record: patent US20240327497A1

Target: canine FcRn (FcRn large subunit with canine beta-2-microglobulin) (canine)
Assay: SPR pH 7.4, FcRn coupled at high density, IgG 400 nM
Catalogue of binders with associated Kd
reported.metric: Kd (nM)

- anti-NGF canine IgGB antibody, Fc variant N434R (antibody, part only; not given: Anti-NGF variable domains, not shown: another chain or arm of the molecule) Fc: APEMLGGPSVFIFPPKPKDTLLIARTPEVTCVVVDLDPEDPEVQISWFVDGKQMQTAKTQPREEQFNGTYRVVSVLPIGHQDWLKGKQFTCKVNNKALPSPIERTISKARGQAHQPSVYVLPPSREELSKNTVSLTCLIKDFFPPDIDVEWQSNGQQEPESKYRTTPPQLDEDGSYFLYSKLSVDKSRWQRGDTFICAVMHEALHRHYTQESLSHSPGK: 234
- anti-NGF canine IgGB antibody, Fc variant N434R + T286Y (antibody, part only; not given: anti-NGF variable domains and light chain, not shown: another chain or arm of the molecule) Fc: APEMLGGPSVFIFPPKPKDTLLIARTPEVTCVVVDLDPEDPEVQISWFVDGKQMQYAKTQPREEQFNGTYRVVSVLPIGHQDWLKGKQFTCKVNNKALPSPIERTISKARGQAHQPSVYVLPPSREELSKNTVSLTCLIKDFFPPDIDVEWQSNGQQEPESKYRTTPPQLDEDGSYFLYSKLSVDKSRWQRGDTFICAVMHEALHRHYTQESLSHSPGK: 81.2
- anti-NGF canine IgGB antibody, Fc variant A426H + D312P (antibody, part only; not given: Anti-NGF variable domains, not shown: another chain or arm of the molecule; small tags and cut ends) Fc: APEMLGGPSVFIFPPKPKDTLLIARTPEVTCVVVDLDPEDPEVQISWFVDGKQMQTAKTQPREEQFNGTYRVVSVLPIGHQPWLKGKQFTCKVNNKALPSPIERTISKARGQAHQPSVYVLPPSREELSKNTVSLTCLIKDFFPPDIDVEWQSNGQQEPESKYRTTPPQLDEDGSYFLYSKLSVDKSRWQRGDTFICHVMHEALHNHYTQESLSHSPGK: 722
